biological target: Human recombinant BAG3 (rBAG3) protein full length (Homo sapiens, UniProt O95817); assay: SPR assay on recombinant full-length BAG3
pKd: −log10 of the molar value.
Parameter Measured: pKd

COC(=O)CN1C(=O)S/C(=C\c2ccc(O)c(O)c2)C1=O [Compound 2]    6.94

A. COC(=O)CN1C(=O)S/C(=C\c2ccc(-c3ccc(C#N)cc3)cn2)C1=O [Compound 9]
B. COC(=O)CN1C(=O)S/C(=C\c2ccc(N(CCO)CCO)cc2)C1=O [Compound 7]
C. CCOC(=O)CN1C(=O)S/C(=C\c2ccc(-c3ccc(C#N)cc3)cn2)C1=O [Compound 8]
D. CCOC(=O)CN1C(=O)S/C(=C\c2ccc(O)c(O)c2)C1=O [Compound 1, reference compound]
E. CCOC(=O)CN1C(=O)S/C(=C\c2ccc(N(CCO)CCO)cc2)C1=O [Compound 6]
Please rank these molecules by pKd in descending order. A complete answer lists every label in the requested sequence.
E, D, A, B, C

====

Target: BAG3 domain (rBAG3BD) (Homo sapiens)
Sequence (O95817 421-498 limits assumed): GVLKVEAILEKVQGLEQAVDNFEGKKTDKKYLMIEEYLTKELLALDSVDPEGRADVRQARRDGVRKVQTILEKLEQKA
Assay: SPR assay on isolated BAG3 BAG domain
Parameter Measured: Kd (µM)

COC(=O)CN1C(=O)S/C(=C\c2ccc(-c3ccc(C#N)cc3)cn2)C1=O    0.0224

A. CCOC(=O)CN1C(=O)S/C(=C\c2ccc(N(CCO)CCO)cc2)C1=O
B. COC(=O)CN1C(=O)S/C(=C\c2ccc(N(CCO)CCO)cc2)C1=O
C. CCOC(=O)CN1C(=O)S/C(=C\c2ccc(O)c(O)c2)C1=O [Compound 1, reference compound]
Please rank these molecules by Kd in descending order. A complete answer lists every label in the requested sequence.
B, A, C
(B: 0.0457 µM, A: 0.0276 µM, C: 0.0064 µM)
